Percent Effect overview
- target: AMP-activated protein kinase, AMPK (Homo sapiens) (UniProt P54646+O43741+P54619+Q9UGJ0+Q9Y478+Q13131+Q9UGI9)
- procedure-summary: AMP-dependent Kinase enzyme assay. An in vitro enzyme assay that detects ADP turnover that is directly proportional to AMPK activity. This uses naive AMPK that is activated during the assay with MK-8722
- Type: functional
- Design: scale not given: direction of the effect not stated beside the values
- conditions-used: 30 µM
The answer is to be given in %; state only the numeric part.

Please review the following examples before continuing.
[
  {
    "molecule": "O=C(O)[C@H]1CN(Cc2ccccc2)C[C@@H]1C(=O)c1ccccc1",
    "observed-value": 12.8
  },
  {
    "molecule": "COc1ccc(Cl)cc1CN(C)C(=O)CN1C(=O)CCC1C (stereo not drawn)",
    "observed-value": 6.65
  },
  {
    "molecule": "Cc1nc(CN2C[C@@H]3OCCN(c4ncc(F)cn4)[C@@H]3C2)cs1",
    "observed-value": 7.05
  },
  {
    "molecule": "CNC(=O)CN1CCOCC2(CCCN(Cc3cccnc3)C2)C1 (stereo not drawn)",
    "observed-value": 2.03
  },
  {
    "molecule": "CCc1ccc2ncn(Cc3ncc[nH]3)c(=O)c2c1",
    "observed-value": 0.257
  }
]

Can you share its Percent Effect? I mean this molecule: `O=C(COc1cccc(F)c1)N1C[C@@H](O)[C@H](N2CCCC2)C1`
10.1

Also, Cc1nc(N)nc(C)c1CC(=O)N1CCCN(CC2CC2)C(C(C)C)C1 (stereo not drawn) please.
-4.33

Also, Cc1nc(C)c(CC(=O)N2CCCN(CC3CC3)C(C(C)C)C2)c(=O)[nH]1 (stereo not drawn) please.
-7.23

Also, `O=C(N[C@H]1CN2CCC1CC2)c1cc(Cn2cnc3ccccc32)[nH]n1` please.
-6.79

Also, `c1cc(CO[C@@H]2CC[C@H]3[C@H]2OCCN3CC2CCOCC2)ccn1` please.
7.58

Also, c1ccc(CN2C[C@@H]3OCCN(CC4CCCO4)[C@@H]3C2)nc1 (stereo partly drawn) please.
-3.75

Also, `NCC1(c2cccc(Br)c2)CCOCC1` please.
-4.06

Also, O=C1CSC(c2cccs2)c2cnn(C3CCCC3)c2N1 (stereo not drawn) please.
3.55

====

- target: Tyrosyl-tRNA synthetase, putative (Trypanosoma cruzi (strain CL Brener))
- Sequence (whole entry): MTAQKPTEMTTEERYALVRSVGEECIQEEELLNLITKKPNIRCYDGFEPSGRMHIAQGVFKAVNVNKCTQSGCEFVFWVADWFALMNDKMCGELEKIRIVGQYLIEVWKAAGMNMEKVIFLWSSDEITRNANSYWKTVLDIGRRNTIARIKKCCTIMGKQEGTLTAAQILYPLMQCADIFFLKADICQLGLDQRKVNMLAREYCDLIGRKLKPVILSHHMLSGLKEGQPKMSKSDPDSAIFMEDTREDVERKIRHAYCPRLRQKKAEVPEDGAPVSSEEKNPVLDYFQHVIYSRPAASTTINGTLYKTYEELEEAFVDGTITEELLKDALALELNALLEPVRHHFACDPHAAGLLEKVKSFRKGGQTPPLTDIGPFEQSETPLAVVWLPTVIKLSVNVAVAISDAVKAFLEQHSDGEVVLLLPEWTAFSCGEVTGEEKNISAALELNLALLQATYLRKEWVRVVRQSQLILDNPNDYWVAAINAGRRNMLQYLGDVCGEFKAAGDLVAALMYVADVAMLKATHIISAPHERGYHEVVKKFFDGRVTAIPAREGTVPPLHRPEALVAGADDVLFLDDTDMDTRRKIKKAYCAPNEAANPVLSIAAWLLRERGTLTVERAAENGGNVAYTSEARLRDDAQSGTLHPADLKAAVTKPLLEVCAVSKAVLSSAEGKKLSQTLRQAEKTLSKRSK
- procedure-summary: Trypanosoma cruzi tyrosyl tRNA synthetase (TcYRS) SOP
- Format: functional
- Parameters: scale not given: direction of the effect not stated beside the values
- conditions-used: 30 µM
Checkbox rule: Percent Effect lower than 20% = Yes; Percent Effect not lower than 20% = No.

[
  {
    "molecule": "CO[C@@H]1CN(Cc2scnc2C)[C@@H]2CCCO[C@@H]21",
    "class-name": "Yes"
  },
  {
    "molecule": "Cc1cccc(CN2C[C@@H]3CCCO[C@@H]3[C@H](NS(C)(=O)=O)C2)n1",
    "class-name": "No"
  }
]

Just wondering, is Percent Effect of `COCCN1C[C@@H]2CN(Cc3cccc(C)n3)C[C@@H]2C1=O` below 20%?
Yes

Also, `Cn1cc(CN2CC[C@H]3CO[C@H](CNc4ncccn4)[C@H]3C2)cn1` please.
No

Also, `Cc1noc(C)c1CN1CC[C@H]2C[C@@H](c3nccs3)O[C@@H]2C1` please.
Yes

Also, COc1ccccc1C1SCC(=O)Nc2n[nH]cc21 (stereo unspecified) please.
Yes

Also, `CC(C)=CCN1C(=O)[C@H]2CC[C@@H]1CN(Cc1cccnc1N)C2` please.
Yes

Also, `c1cnc(NC[C@@H]2CCC[C@@H]3CN(Cc4cccnc4)C[C@@H]32)nc1` please.
Yes

Also, Cc1nnc(N2CCCC3(CN(Cc4ccncc4)CCO3)C2)o1 (stereo unspecified) please.
Yes

Also, `Cc1cccc(CN2CC[C@H]3[C@H]2CCN3Cc2cnn(C)c2)n1` please.
Yes

Also, CCOCC(O)CN1CCN(C(=O)Cc2ccc(C)nc2)CC1 (stereo unspecified) please.
Yes
